compounds and their reported z-score of subpopulation abundance
Tested on: Saccharomyces cerevisiae BY4741 SeMeCo community
ASSAY_PROTOCOL: z-score of subpopulation abundance vs DMSO median, subpopulation auxotrophic for LU; higher = larger share of this subpopulation than in DMSO controls
SETTINGS: 10 µM; 24 h; SM minimal medium; subpopulation (auxotrophy): LU
Counter-ions that a name gives are not always drawn.

| COMPOUND | z-score of subpopulation abundance |
| --- | --- |
| CCN(CC)C(=O)C1(c2ccccc2)CC1CN (configuration not stated) [Milnacipran HCl] | 0.01 |
| CC(=O)[C@H]1CC[C@H]2[C@@H]3CCC4=CC(=O)CC[C@]4(C)[C@H]3CC[C@]12C | -1.24 |
| Cc1noc(NS(=O)(=O)c2ccc(N)cc2)c1C | 1.45 |
| O=C(CCCN1CCN(c2ccccn2)CC1)c1ccc(F)cc1 | 0.24 |
| Cc1nc(C)c(Cl)c(O)c1Cl | 0.07 |
| CN[C@H](CC(C)C)C(=O)N[C@H]1C(=O)N[C@@H](CC(N)=O)C(=O)N[C@H]2C(=O)N[C@H]3C(=O)N[C@H](C(=O)N[C@H](C(=O)O)c4cc(O)cc(O)c4-c4cc3ccc4O)[C@H](O)c3ccc(c(Cl)c3)Oc3cc2cc(c3O[C@@H]2O[C@H](CO)[C@@H](O)[C@H](O)[C@H]2O[C@H]2C[C@](C)(N)[C@H](O)[C@H](C)O2)Oc2ccc(cc2Cl)[C@H]1O [Vancomycin HCl] | 0.18 |
| Cc1cc(CC(C)CC(C)(C)C)n(O)c(=O)c1 (configuration not stated) | 2.47 |

* * *

System: Saccharomyces cerevisiae BY4741 SeMeCo community
ASSAY_PROTOCOL: z-score of subpopulation abundance vs DMSO median, subpopulation auxotrophic for M; higher = larger share of this subpopulation than in DMSO controls
SETTINGS: 10 µM; 24 h; SM minimal medium; subpopulation (auxotrophy): M
Where a name gives a salt, the structure may show the parent alone.

| COMPOUND | z-score of subpopulation abundance |
| --- | --- |
| COCCOC(=O)C1=C(C)NC(C)=C(C(=O)OC/C=C/c2ccccc2)C1c1cccc([N+](=O)[O-])c1 (configuration not stated) | -1.14 |
| CCCCN(CCCC)CC(O)c1cc(Cl)cc2c1-c1ccc(Cl)cc1/C2=C/c1ccc(Cl)cc1 (configuration not stated) | -0.39 |
| C[N+]1(C)[C@@H]2C[C@@H](OC(=O)C(O)(c3cccs3)c3cccs3)C[C@H]1[C@@H]1O[C@@H]12 [Tiotropium Bromide hydrate] | 0.04 |
| CCc1c(C)[nH]c2c1C(=O)C(CN1CCOCC1)CC2 (configuration not stated) [Molindone hydrochloride] | -0.61 |
| Cc1cc(NS(=O)(=O)c2ccc(N)cc2)nc(C)n1 | 0.59 |
| CC(C)c1nc(N(C)S(C)(=O)=O)nc(-c2ccc(F)cc2)c1/C=C/[C@@H](O)C[C@@H](O)CC(=O)O | -1.93 |
| COCCCN1CCC(NC(=O)c2cc(Cl)c(N)c3c2OCC3)CC1 [Prucalopride Succinate] | 0.77 |

* * *

compounds and their reported z-score of subpopulation abundance
System: Saccharomyces cerevisiae BY4741 SeMeCo community
ASSAY_PROTOCOL: z-score of subpopulation abundance vs DMSO median, subpopulation auxotrophic for LUM; higher = larger share of this subpopulation than in DMSO controls
SETTINGS: 10 µM; 24 h; SM minimal medium; subpopulation (auxotrophy): LUM
MEASURED_ATTRIBUTE: z-score of subpopulation abundance

| COMPOUND | ENDPOINT_RESULT |
| --- | --- |
| Cn1nnc(-c2ccc(-c3ccc(N4C[C@H](COP(=O)(O)O)OC4=O)cc3F)cn2)n1 [Tedizolid Phosphate] | -1.05 |
| N[C@H]1CONC1=O | 1.18 |
| CC(C)NNC(=O)c1ccncc1 | 0.03 |
| COC(=O)C1=C(C)NC(C)=C(C(=O)OC(C)C)C1c1cccc2nonc12 (stereo not given) | -0.39 |
| Cc1ncc([N+](=O)[O-])n1CC(C)O (stereo not given) | -0.06 |
| CO/N=C(\C(=O)N[C@@H]1C(=O)N2C(C(=O)O)=C(COC(C)=O)CS[C@H]12)c1csc(N)n1 [Cefotaxime sodium] | 0.05 |
| N[C@@H](CCC(=O)O)C(=O)O [(S)-Glutamic acid] | -0.99 |
| COc1ccccc1OCC(O)CN1CCN(CC(=O)Nc2c(C)cccc2C)CC1 (stereo not given) | 0.49 |
| Cc1cccc(C#Cc2ccccc2)n1 | -0.34 |
| CC[C@H]1OC(=O)[C@H](C)[C@@H](O[C@H]2C[C@@](C)(OC)[C@@H](O)[C@H](C)O2)[C@H](C)[C@@H](O[C@@H]2O[C@H](C)C[C@H](N(C)C)[C@H]2O)[C@](C)(O)C[C@@H](C)CN(C)[C@H](C)[C@@H](O)[C@]1(C)O [Azithromycin] | 0.31 |
